Value source: patent US20210163545A1

# system-under-test: Fab
# measurement-description: static binding capacity: Fab incubated with ligand-immobilized porous particles, eluted at pH 2.5, absorbance
measured-metric: SBC without alkali treatment (mg/mL-particles)

[[record]]
binder = "Recombinant immunoglobulin κ chain binding protein KBP4 (protein) KETPETPEEPKEEVTIKVNLIFADGKTQTATFKGTFEEATAEAFRYADLLAKVNGEYTADLEDGGYTINIKFAGKKETPETPEEPKEEVTIKVNLIFADGKTQTATFKGTFEEATAEAFRYADLLAKVNGEYTADLEDGGYTINIKFAGKKETPETPEEPKEEVTIKVNLIFADGKTQTATFKGTFEEATAEAFRYADLLAKVNGEYTADLEDGGYTINIKFAGKKETPETPEEPKEEVTIKVNLIFADGKTQTATFKGTFEEATAEAFRYADLLAKVNGEYTADLEDGGYTINIKFAGK"
experimental_value = 47

